test: pharmacokinetic analysis in rats
reported_conditions: male, Sprague-Dawley, rat, plasma, iv, 20 mg/kg
endpoint_name: half-life (h)
Could you give me the number in h? Just the number is fine.

Request: Need half-life, item Cc1coc2c1C(=O)C(=O)c1c-2ccc2c(C)cccc12
Response: 16.1

----------
Target or system SFTSV EndoN (Dabie bandavirus, UniProt I0DF35): recorded pKd listed per item.
The scale used: pKd is minus the common logarithm of the concentration in molar units.

Cc1coc2c1C(=O)C(=O)c1c-2ccc2c1CCCC2(C)C [Tanshinone IIA, tanshinone IIA] | 3.13

Alright, here's another compound for you.
Request: What value of pKd on SFTSV EndoN (Dabie bandavirus, UniProt I0DF35) does Cc1coc2c1C(=O)C(=O)c1c-2ccc2c(C)cccc12 [Tanshinone I, tanshinone I] have?
Response: 3.17

----------
Test system: GTV
test: microbe, parasite or virus in culture
Format: cell-based
reported_conditions: Guertu virus, Vero, 36 h, read-out: EC50 against GTV
endpoint_name: pEC50
The scale used: pEC50 is minus the common logarithm of the concentration in molar units.

O=C1c2c(O)c(=O)ccn2N([C@@H]2c3ccccc3SCc3c2ccc(F)c3F)[C@@H]2COCCN12 [Baloxavir, baloxavir, reference compound] | 5.43
Cc1coc2c1C(=O)C(=O)c1c-2ccc2c(C)cccc12 [Tanshinone I, tanshinone I] | 6.35

Alright, here's another compound for you.
Request: Need pEC50, item Cc1coc2c1C(=O)C(=O)c1c-2ccc2c1CCCC2(C)C [Tanshinone IIA, tanshinone IIA]
Response: 5.92

These entries and their values trace back to paper PMC10617418.
